- testProtocol: NCI Yeast Anticancer Drug Screen. Data for the bub3 strain (AID 167)
- measurementContext: S. cerevisiae bub3 mutant strain, at 50.0 µM, active compounds read high
- Procedure: Growth inhibition of yeast strains with defined genetic alterations is measured as a screen for potential anti-cancer activity. Selected strains with alterations in DNA damage repair or cell cycle control were exposed to compounds and growth inhibition was measured relative to vehicle treated controls. The strain used in this assay is bub3
This is part of a sample that, as a whole, favours compounds with a hit. Of some 79,000 tested, about 15% had one in any assay.
Catalogue of compounds with associated growth inhibition
Numeric only. Scale: %

Solved entries (count: 3):
Incoming: Given O=C(O)c1ccc2c(c1)S(=O)(=O)c1ccccc1C2=O , respond with its growth inhibition.
Outgoing: 23.9

Incoming: Given CSc1ccc(NC(=O)Nc2ccccc2C(F)(F)F)cc1 , respond with its growth inhibition.
Outgoing: 34.5

Incoming: Given c1ccc(CNc2ncncc2-c2ccccc2)cc1 , respond with its growth inhibition.
Outgoing: 1.6

Others:
Incoming: Given O=C1/C(=C/c2ccc(Cl)cc2)COc2ccc(Br)cc21 , respond with its growth inhibition.
Outgoing: 1.8

Incoming: Given O=C(O)[C@H]1C[C@H](O)CCN1 , respond with its growth inhibition.
Outgoing: -3.85

Incoming: Given CC1(C)C=C(S(=O)(=O)c2ccccc2)Oc2ccccc2O1 , respond with its growth inhibition.
Outgoing: 47.8

Incoming: Given O=C(O)c1cccc(O)c1C(=O)O , respond with its growth inhibition.
Outgoing: 0.75

Incoming: Given COc1cc2c(c3c1CCC(C)(C)O3)Cc1c(cc(OC)c(OC)c1CCC(C)(C)O)O2 , respond with its growth inhibition.
Outgoing: 3

Incoming: Given CC1(C=O)CCCC2(C)[C@@H]1CCC13CC(CC[C@H]12)C(C(=O)O)C3 (stereo partly drawn) , respond with its growth inhibition.
Outgoing: 26.8

Incoming: Given CC(C)=C1CC(=O)NC1=O , respond with its growth inhibition.
Outgoing: -6.05

Incoming: Given Cc1cc(O)cc2oc(=O)ccc12 , respond with its growth inhibition.
Outgoing: -11.7

Incoming: Given C(=C\c1ccc2ccc(/C=C/c3ccccc3)cc2c1)/c1ccccc1 , respond with its growth inhibition.
Outgoing: 8.25

Incoming: Given Cc1ccc(C)n1N(c1ccccc1)c1ccccc1 , respond with its growth inhibition.
Outgoing: 21.6

Incoming: Given CCOC(=O)CCC(NC(=O)c1ccc(N=Cc2nc3ccccc3nc2-c2ccccc2)cc1)C(=O)OCC (stereo not drawn) , respond with its growth inhibition.
Outgoing: 11.8

Incoming: Given COC(=O)c1cc([N+](=O)[O-])cc2ccccc12 , respond with its growth inhibition.
Outgoing: 23.1

Incoming: Given CCNCc1cc(Nc2cc(C)nc(/N=C(\N)Nc3ccc(Cl)c(Cl)c3)n2)ccc1OC , respond with its growth inhibition.
Outgoing: 98.2

Incoming: Given O=c1oc(-c2ccccc2)nc2c1CCCS2 , respond with its growth inhibition.
Outgoing: -8.25

Incoming: Given CC1=C(C)CC2(CC1)C(=O)C1(CCC(C)=C(C)C1)C2=O (stereo not drawn) , respond with its growth inhibition.
Outgoing: 17

Incoming: Given O=C1NC(=O)C(=CN2C(=O)/C(=C/c3ccc(O)cc3)SC2=S)C(=O)N1 , respond with its growth inhibition.
Outgoing: 1.8

Incoming: Given COc1ccc(NC(=O)NCc2ccc(C)c(C)c2)cc1 , respond with its growth inhibition.
Outgoing: 20.1
